tested on: H1299 lung cancer cells; assay type: cell-based; settings: 72 h
Square brackets hold non-standard residues; d marks the D form. Peptide text beside a SMILES is read from it. Phe(4-F) = N[C@@H](Cc1ccc(F)cc1)C(=O)O; 2Nal = N[C@@H](Cc1ccc2ccccc2c1)C(=O)O; d2Nal = N[C@H](Cc1ccc2ccccc2c1)C(=O)O; dNle = CCCC[C@@H](N)C(=O)O
Consider the following compounds and their measured pIC50 readings.
Interpret pIC50 as the negative base-10 log of the concentration measured in mol/L.

CCCC[C@H]1NC(=O)[C@H](Cc2ccc(F)cc2)NC(=O)[C@H](CCCNC(=N)N)NC(=O)[C@H](Cc2ccc3ccccc3c2)NC(=O)[C@H](CCCNC(=N)N)NC(=O)[C@H](CCCNC(=N)N)NC(=O)[C@H](CCCNC(=N)N)NC(=O)[C@@H](C)NC(=O)[C@H]([C@@H](C)O)NC(=O)[C@H](Cc2c[nH]c3ccccc23)NC(=O)[C@H](CCC(N)=O)NC1=O [Cyclorasin 9A55] (cyclo(WT[dA]RRR[2Nal]R[Phe(4-F)][dNle]Q)) = 4.92

Note: attention shifts to another entry.
Exercise: Observed pIC50 on H1299 lung cancer cells for CC(C)C[C@H]1NC(=O)[C@H](Cc2ccc(F)cc2)NC(=O)[C@H](CCCNC(=N)N)NC(=O)[C@@H](Cc2ccc3ccccc3c2)NC(=O)[C@H](CCCNC(=N)N)NC(=O)[C@H](CCCNC(=N)N)NC(=O)[C@@H](CCCNC(=N)N)NC(=O)[C@@H](C)NC(=O)[C@H]([C@@H](C)O)NC(=O)[C@H](Cc2c[nH]c3ccccc23)NC(=O)[C@H](CCC(N)=O)NC1=O [Cyclorasin 9A10] (cyclo(WT[dA][dR]RR[d2Nal]R[Phe(4-F)][dL]Q)) , please.
Solution: 5.00

###

tested on: H1299 lung cancer cells; type: cell-based; details: 72 h
Square brackets hold non-standard residues; d marks the D form. Side chains are listed from the residue outwards. Peptide text beside a SMILES is read from it. Phe(3,4-F2) = N[C@@H](Cc1ccc(F)c(F)c1)C(=O)O; Phe(4-F) = N[C@@H](Cc1ccc(F)cc1)C(=O)O; d2Nal = N[C@H](Cc1ccc2ccccc2c1)C(=O)O; Tle = CC(C)(C)[C@H](N)C(=O)O; dNle = CCCC[C@@H](N)C(=O)O
property.name: pIC50
Interpret pIC50 as the negative base-10 log of the concentration measured in mol/L.

CCCC[C@H]1NC(=O)[C@H](Cc2ccc(F)cc2)NC(=O)[C@H](CCCNC(=N)N)NC(=O)[C@@H](Cc2ccc3ccccc3c2)NC(=O)[C@H](CCCNC(=N)N)NC(=O)[C@H](CCCNC(=N)N)NC(=O)[C@H](CCCNC(=N)N)NC(=O)[C@@H](C(C)C)NC(=O)[C@H](C(C)(C)C)NC(=O)[C@H](Cc2c[nH]c3ccccc23)NC(=O)[C@H](CCC(N)=O)NC1=O [Cyclorasin 9A48] (cyclo(W[Tle][dV]RRR[d2Nal]R[Phe(4-F)][dNle]Q)) = 4.96

Exercise: Look up pIC50: C[C@H]1NC(=O)[C@H]([C@@H](C)O)NC(=O)[C@H](Cc2c[nH]c3ccccc23)NC(=O)[C@H](CCC(N)=O)NC(=O)[C@@H](CCCNC(=N)N)NC(=O)[C@H](Cc2ccc(F)cc2)NC(=O)[C@H](CCCNC(=N)N)NC(=O)[C@@H](Cc2ccc3ccccc3c2)NC(=O)[C@H](CCCNC(=N)N)NC(=O)[C@H](CCCNC(=N)N)NC(=O)[C@H](CCCNC(=N)N)NC1=O [Cyclorasin 9A45] (cyclo(WT[dA]RRR[d2Nal]R[Phe(4-F)][dR]Q))
Solution: 5.05

Exercise: Try this compound next: CCCC[C@H]1NC(=O)[C@H](Cc2ccc(F)c(F)c2)NC(=O)[C@H](CCCNC(=N)N)NC(=O)[C@@H](Cc2ccc3ccccc3c2)NC(=O)[C@H](CCCNC(=N)N)NC(=O)[C@H](CCCNC(=N)N)NC(=O)[C@H](CCCNC(=N)N)NC(=O)[C@@H](C(C)C)NC(=O)[C@H](C(C)(C)C)NC(=O)[C@H](Cc2c[nH]c3ccccc23)NC(=O)[C@H](CCC(N)=O)NC1=O [Cyclorasin 9A54] (cyclo(W[Tle][dV]RRR[d2Nal]R[Phe(3,4-F2)][dNle]Q))
Solution: 5.14

Exercise: Try this compound next: CCCC[C@H]1NC(=O)[C@H](Cc2ccc(F)c(F)c2)NC(=O)[C@H](CCCNC(=N)N)NC(=O)[C@@H](Cc2ccc3ccccc3c2)NC(=O)[C@H](CCCNC(=N)N)NC(=O)[C@H](CCCNC(=N)N)NC(=O)[C@@H](CCCNC(=N)N)NC(=O)[C@@H](C(C)C)NC(=O)[C@H](C(C)(C)C)NC(=O)[C@H](Cc2c[nH]c3ccccc23)NC(=O)[C@H](CCC(N)=O)NC1=O [Cyclorasin 9A51] (cyclo(W[Tle][dV][dR]RR[d2Nal]R[Phe(3,4-F2)][dNle]Q))
Solution: 5.17

Exercise: Try this compound next: `CCCC[C@H]1NC(=O)[C@H](Cc2ccccc2)NC(=O)[C@H](CCCNC(=N)N)NC(=O)[C@@H](Cc2ccc3ccccc3c2)NC(=O)[C@H](CCCNC(=N)N)NC(=O)[C@H](CCCNC(=N)N)NC(=O)[C@@H](CCCNC(=N)N)NC(=O)[C@@H](C)NC(=O)[C@H]([C@@H](C)O)NC(=O)[C@H](Cc2c[nH]c3ccccc23)NC(=O)[C@H](CCC(N)=O)NC1=O`
Solution: 5.02

Exercise: Try this compound next: CCCC[C@H]1NC(=O)[C@H](Cc2ccc(F)cc2)NC(=O)[C@H](CCCNC(=N)N)NC(=O)[C@@H](Cc2ccc3ccccc3c2)NC(=O)[C@H](CCCNC(=N)N)NC(=O)[C@H](CCCNC(=N)N)NC(=O)[C@H](CCC(=O)N[C@@H](CCCCN)C(N)=O)NC(=O)[C@@H](C)NC(=O)[C@H]([C@@H](C)O)NC(=O)[C@H](Cc2c[nH]c3ccccc23)NC(=O)[C@H](CCC(N)=O)NC1=O [Cyclorasin 9A1] (cyclo(RR[d2Nal]R[Phe(4-F)][dNle]QWT[dA]E([Lys-NH2])))
Solution: 4.89

Exercise: Try this compound next: CCCC[C@H]1NC(=O)[C@H](Cc2ccc(F)cc2)NC(=O)[C@H](CCCNC(=N)N)NC(=O)[C@@H](Cc2ccc3ccccc3c2)NC(=O)[C@H](CCCNC(=N)N)NC(=O)[C@H](CCCNC(=N)N)NC(=O)[C@@H](CCCNC(=N)N)NC(=O)[C@@H](CC(C)C)NC(=O)[C@H]([C@@H](C)O)NC(=O)[C@H](Cc2c[nH]c3ccccc23)NC(=O)[C@H](CCC(N)=O)NC1=O [Cyclorasin 9A15] (cyclo(WT[dL][dR]RR[d2Nal]R[Phe(4-F)][dNle]Q))
Solution: 4.92

Exercise: Try this compound next: CCCC[C@H]1NC(=O)[C@H](Cc2ccc(F)cc2)NC(=O)[C@H](CCCNC(=N)N)NC(=O)[C@@H](Cc2ccc3ccccc3c2)NC(=O)[C@H](CCCNC(=N)N)NC(=O)[C@H](CCCNC(=N)N)NC(=O)[C@@H](CCCNC(=N)N)NC(=O)[C@@H](C(C)C)NC(=O)[C@H]([C@@H](C)O)NC(=O)[C@H](Cc2c[nH]c3ccccc23)NC(=O)[C@H](CCC(N)=O)NC1=O [Cyclorasin 9A14] (cyclo(WT[dV][dR]RR[d2Nal]R[Phe(4-F)][dNle]Q))
Solution: 5.27

Exercise: Try this compound next: CCCC[C@H]1NC(=O)[C@H](Cc2ccc(F)cc2)NC(=O)[C@H](CCCNC(=N)N)NC(=O)[C@@H](Cc2ccc3ccccc3c2)NC(=O)[C@H](CCCNC(=N)N)NC(=O)[C@H](CCCNC(=N)N)NC(=O)[C@@H](CCCNC(=N)N)NC(=O)[C@@H](C)NC(=O)[C@H](C(C)(C)C)NC(=O)[C@H](Cc2c[nH]c3ccccc23)NC(=O)[C@H](CCC(N)=O)NC1=O [Cyclorasin 9A16] (cyclo(W[Tle][dA][dR]RR[d2Nal]R[Phe(4-F)][dNle]Q))
Solution: 5.46
